Numbers sourced from ChEMBL document CHEMBL3988442.

Target: Polyketide synthase Pks13 (Mycobacterium tuberculosis (strain ATCC 25618 / H37Rv)) (UniProt I6X8D2)
Sequence (I6X8D2 whole entry): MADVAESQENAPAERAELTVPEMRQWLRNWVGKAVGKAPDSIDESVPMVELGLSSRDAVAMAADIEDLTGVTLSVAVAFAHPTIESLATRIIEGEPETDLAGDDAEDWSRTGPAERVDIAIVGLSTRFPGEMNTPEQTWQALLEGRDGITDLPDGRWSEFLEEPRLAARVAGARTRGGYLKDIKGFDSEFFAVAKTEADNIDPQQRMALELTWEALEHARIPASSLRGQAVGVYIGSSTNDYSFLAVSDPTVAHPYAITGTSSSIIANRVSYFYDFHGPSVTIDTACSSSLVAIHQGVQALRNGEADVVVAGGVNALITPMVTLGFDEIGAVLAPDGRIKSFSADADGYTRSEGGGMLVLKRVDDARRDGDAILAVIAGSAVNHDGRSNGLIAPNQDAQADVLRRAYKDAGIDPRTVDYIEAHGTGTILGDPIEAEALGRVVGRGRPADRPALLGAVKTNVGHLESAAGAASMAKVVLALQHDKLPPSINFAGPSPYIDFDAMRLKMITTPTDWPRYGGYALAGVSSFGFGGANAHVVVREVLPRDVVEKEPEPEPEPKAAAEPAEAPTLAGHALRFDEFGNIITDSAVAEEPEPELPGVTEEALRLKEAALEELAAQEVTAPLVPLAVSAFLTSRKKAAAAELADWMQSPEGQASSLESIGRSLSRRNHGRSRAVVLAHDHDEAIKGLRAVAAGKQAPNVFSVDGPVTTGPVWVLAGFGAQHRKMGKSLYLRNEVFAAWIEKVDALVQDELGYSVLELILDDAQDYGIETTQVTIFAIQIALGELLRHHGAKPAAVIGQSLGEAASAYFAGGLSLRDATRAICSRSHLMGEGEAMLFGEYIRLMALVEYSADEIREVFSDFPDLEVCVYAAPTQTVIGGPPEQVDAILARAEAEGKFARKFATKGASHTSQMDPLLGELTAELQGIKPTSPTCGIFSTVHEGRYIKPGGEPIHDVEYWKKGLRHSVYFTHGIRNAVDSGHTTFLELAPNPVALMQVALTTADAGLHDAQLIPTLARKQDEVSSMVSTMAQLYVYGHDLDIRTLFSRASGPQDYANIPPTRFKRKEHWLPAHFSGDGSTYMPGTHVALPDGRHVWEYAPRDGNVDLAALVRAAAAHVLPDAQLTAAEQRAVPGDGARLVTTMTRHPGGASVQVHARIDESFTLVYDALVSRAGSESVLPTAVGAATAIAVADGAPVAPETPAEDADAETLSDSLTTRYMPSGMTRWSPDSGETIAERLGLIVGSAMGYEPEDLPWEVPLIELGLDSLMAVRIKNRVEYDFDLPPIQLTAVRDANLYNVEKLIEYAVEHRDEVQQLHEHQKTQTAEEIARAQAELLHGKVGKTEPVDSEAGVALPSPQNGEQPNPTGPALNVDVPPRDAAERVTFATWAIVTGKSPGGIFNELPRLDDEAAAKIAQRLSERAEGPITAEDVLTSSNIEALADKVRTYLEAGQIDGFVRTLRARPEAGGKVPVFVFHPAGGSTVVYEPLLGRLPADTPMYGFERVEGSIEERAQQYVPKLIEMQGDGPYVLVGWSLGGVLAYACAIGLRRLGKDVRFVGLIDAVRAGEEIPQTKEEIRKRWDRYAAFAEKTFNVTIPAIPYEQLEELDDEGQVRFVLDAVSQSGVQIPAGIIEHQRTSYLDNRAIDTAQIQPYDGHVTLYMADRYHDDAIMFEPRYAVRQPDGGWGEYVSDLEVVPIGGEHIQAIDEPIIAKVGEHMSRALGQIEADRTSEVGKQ
Assay: Mycobacterium tuberculosis Polyketide synthase 13 Thioesterase (PKS13)
Type: functional
Set-up: scale not given: in the data most compounds retested in dose-response had high values
Details: 30 µM
The whole screen tested about 67,000 compounds, of which about 300 (0.45%) showed an effect of 50% or more. The sample as a whole holds a higher share of strong results than the screen did.
PROPERTY NAME: Percent Effect (%)
Express your answer in %, writing the number without its unit.

Entry Cc1noc(C)c1CN1C[C@@H]2CCCO[C@@H]2[C@H](Nc2ccccn2)C1 : reported Percent Effect = ? -22.7

Entry O=C(c1cccnc1)N1CCN2C(=O)N(Cc3ccc(F)cc3)C[C@H]2C1 : reported Percent Effect = ? 2.86

Entry CC(=O)NC1CCCN(C(=O)NCc2ccc(-c3ccn[nH]3)cc2)C1 (stereo not given) : reported Percent Effect = ? -5.89

Entry Cc1nc2cc(C3CCCCN3C(=O)C3CC3)nn2c(O)c1C (stereo not given) : reported Percent Effect = ? 9.02

Entry O=C1CN([C@@H]2CC[C@@H](NS(=O)(=O)c3ccccc3F)[C@H]2O)CCN1 : reported Percent Effect = ? -2.59

Entry CN(Cc1cncnc1)[C@H]1CN(CC2CC2)[C@@H]2CCCO[C@@H]21 : reported Percent Effect = ? -5.38

Entry CCOC(=O)[C@]12CCCN(Cc3cccs3)C[C@H]1CN(C(C)C)C2 : reported Percent Effect = ? -0.678

Entry COc1ccccc1N1CCC(CNS(=O)(=O)c2cccc(C#N)c2)C1 (stereo not given) : reported Percent Effect = ? 50.9

Entry CC(C)c1cc(CN2CCNCC2)no1 : reported Percent Effect = ? 18.9

Entry COc1ccccc1N1CCC(CNS(=O)(=O)c2c(C)nn(C)c2C)C1 (stereo not given) : reported Percent Effect = ? 0.665

Entry CN(C)CCO[C@H]1CN(C(=O)c2cscn2)[C@@H]2COC[C@H]12 : reported Percent Effect = ? 4.36

Entry COCc1noc(-c2ccc(N(C)Cc3ccc(C)o3)nc2)n1 : reported Percent Effect = ? 69.6

Entry Cc1nc(CN(C)C(=O)NC(C)c2ccc3c(c2)OCCO3)cs1 (stereo not given) : reported Percent Effect = ? 58

Entry CC(C)(C)OCCN1CCCC1c1nc(Cc2ccc(F)cc2)no1 (stereo not given) : reported Percent Effect = ? 74.9

Entry Cc1nn(C)c2c(=O)n(CC(=O)NC3CCCCC3)ccc12 : reported Percent Effect = ? -9.58

Entry COCCN1C[C@@H]2CN(Cc3ccoc3)CCC[C@]2(C(=O)O)C1 : reported Percent Effect = ? -27.8

Entry COc1ccc(CCC(C)Nc2cccc(SC)c2)cc1 (stereo not given) : reported Percent Effect = ? 65.2

Entry CCNC(=O)c1nnc2ccc(N3CCOCC3)cc2n1 : reported Percent Effect = ? 48.2

Entry CCOCC1CCCN(C(=O)NCc2ccc(-c3ccn[nH]3)cc2)C1 (stereo not given) : reported Percent Effect = ? 56.4

Entry Cc1nc(CCNC(=O)NC(C)c2ccc3c(c2)OCCO3)cs1 (stereo not given) : reported Percent Effect = ? -9.04

Entry CCc1nccn1CC(=O)N1C[C@H]2CC[C@@H]1CN(C(=O)N(C)C)C2 : reported Percent Effect = ? -13.8

Entry Cc1cc(C(=O)N2C[C@H]3CC[C@@H]2CN(C(=O)c2ccncc2)C3)cs1 : reported Percent Effect = ? -6.64

Entry Cc1nc[nH]c1CN1CCN(C(=O)c2cccs2)[C@H]2CS(=O)(=O)C[C@H]21 : reported Percent Effect = ? -7.55

Entry COc1ccc(C(=O)Nc2cccc(SC)c2)c(OC)n1 : reported Percent Effect = ? -19.8

Entry Cc1ccccc1S(=O)(=O)N[C@@H]1CC[C@@H](N2CCNC(=O)C2)[C@@H]1O : reported Percent Effect = ? 53

Entry O=C(C1CCC1)N1CCO[C@H]2[C@H](OCCCn3cccn3)CC[C@@H]21 : reported Percent Effect = ? -40.4

Entry Cc1ccc(C(=O)N2C[C@H](OCc3cccnc3)[C@H]3COC[C@H]32)cn1 : reported Percent Effect = ? -11.8

Entry COc1ccccc1N1CCC(CNCc2ccc(C#N)cc2)C1 (stereo not given) : reported Percent Effect = ? -12.2

Entry CCCN1CCN(C(=O)c2ccnc(N)c2)[C@H]2CS(=O)(=O)C[C@H]21 : reported Percent Effect = ? -5.18

Entry CN1CCN(C(=O)[C@@H]2CCO[C@@H]3CCN(c4ncccn4)C[C@@H]32)CC1 : reported Percent Effect = ? -7.46

Entry CCCN1CCCC1c1nc(Cc2ccc(F)cc2)no1 (stereo not given) : reported Percent Effect = ? -12.9

Entry COc1ccc(CC(C)Nc2cccc(SC)c2)cc1 (stereo not given) : reported Percent Effect = ? 57.2

Entry Cc1nc(CNC(=O)NC(C)c2ccc3c(c2)OCCCO3)cs1 (stereo not given) : reported Percent Effect = ? -3.62

Entry O=C1O[C@@H]2CN(C3CCOCC3)C[C@@H]2N1CCCc1ccc(F)cc1 : reported Percent Effect = ? 1.75

Entry COc1ccccc1N1CCC(CNCc2cccc(OC)c2OC)C1 (stereo not given) : reported Percent Effect = ? -8.68

Entry CN(C)C(=O)CN1C[C@@H]2CC[C@H](C1)N(C(=O)CCn1cncn1)C2 : reported Percent Effect = ? -4.82

Entry CC(C)c1cc(CN2CCC(CC(=O)O)CC2)no1 : reported Percent Effect = ? 60.1

Entry O=C1CN([C@@H]2CC[C@@H](NS(=O)(=O)c3ccccc3)[C@H]2O)CCN1 : reported Percent Effect = ? 0.207

Entry CC(C)c1cc(CN2CCC(N)CC2)no1 : reported Percent Effect = ? 11.6

Entry CCOC(=O)[C@@H]1[C@@H](c2ccccc2)CN2CCN(C(=O)C3CC3)C[C@H]12 : reported Percent Effect = ? -34.9

Entry CNc1ncc(CN(C)C(=O)c2cccc(Cn3cccn3)c2)cn1 : reported Percent Effect = ? 118

Entry Cc1cc(F)ccc1C(=O)N1C[C@@H]2COC[C@]2(CN(C)C)C1 : reported Percent Effect = ? -28.5

Entry Cc1ccc(CC(=O)N2CC[C@@H]3NC(=O)CC[C@@H]32)cc1 : reported Percent Effect = ? -1.54

Entry Cc1cnc(N2CC[C@@H]3O[C@@H](COCC(=O)N(C)C)CC[C@@H]32)nc1 : reported Percent Effect = ? -4.2

Entry CCOC[C@]12COC[C@H]1CN(Cc1ccc(F)c(F)c1)C2 : reported Percent Effect = ? -14.9

###

Target: Polyketide synthase Pks13 (Mycobacterium tuberculosis (strain ATCC 25618 / H37Rv))
Assay: Mycobacterium tuberculosis Polyketide synthase 13 Thioesterase (PKS13)
Type: functional
Design: scale not given: in the data most compounds retested in dose-response had high values
Conditions: 30 µM
About 300 (0.45%) of roughly 67,000 compounds showed an effect of 50% or more. The sample holds strong results, similar compounds and a random draw of the others, so the mix is not that of the screen.
Task for the reader: assign each of the following compounds its reported Percent Effect.
Reply with the number and its unit after it.

Entry CCc1[nH]c2c(CNc3nc(C)cc(NC)n3)cc(C)cc2c1C : reported Percent Effect = ? 146%

Entry O=C(c1ccnnc1)N1C[C@H](Oc2cccnc2)[C@H]2OCCC[C@H]21 : reported Percent Effect = ? -7.04%

Entry COc1cccc(CNC[C@@]2(COc3cccnc3)C[C@@H](O)[C@@H](O)C2)c1 : reported Percent Effect = ? 3.65%

Entry CO[C@H]1CC[C@H]2[C@H]1OCCN2C(=O)c1ccc(C)nc1 : reported Percent Effect = ? -32.1%

Entry CCCn1nnc(NCc2ccc(-c3ccc(Br)cc3)o2)n1 : reported Percent Effect = ? 50.3%

Entry CNC(=O)[C@@]12CCCN(c3ncccn3)[C@@H]1CN(c1ncc(C)cn1)C2 : reported Percent Effect = ? -27.3%

Entry CCOC(=O)CNC(=O)NCc1cc(C)n(-c2ccccc2OC)c1C : reported Percent Effect = ? 50%

Entry CCn1nnc(NCc2ccc(-c3ccc(Br)cc3)o2)n1 : reported Percent Effect = ? 31.1%

Entry CN1CCN2C[C@@H](CO)[C@H](c3ccccc3)[C@H]2C1 : reported Percent Effect = ? 1.92%

Entry COc1ccccc1-n1c(C)cc(CNC(=O)NC(C)C)c1C : reported Percent Effect = ? 0.233%

Entry COc1ccc(CN2C[C@@H]3OCCN(c4ncccn4)[C@@H]3C2)cc1 : reported Percent Effect = ? -27.4%

###

Biological target: Polyketide synthase Pks13 (Mycobacterium tuberculosis (strain ATCC 25618 / H37Rv)) (UniProt I6X8D2)
Test: Mycobacterium tuberculosis Polyketide synthase 13 Thioesterase (PKS13)
Assay type: functional
Set-up: scale not given: in the data most compounds retested in dose-response had high values
Conditions: 30 µM
Out of some 67,000 compounds screened, about 300 (0.45%) showed an effect of 50% or more. The list comes from a sample in which strong results are over-represented; it also holds close analogues and randomly drawn compounds.
Task for the reader: assign each of the following compounds its reported Percent Effect.
Express your answer in %, writing the number without its unit.

Entry COC(=O)c1sc2cccc(F)c2c1CNC(=O)C1CCCO1 (centres undefined) : reported Percent Effect = ? 1.86

Entry Nc1nccnc1CC1CCCN(Cc2ccnc3ccccc23)C1 (centres undefined) : reported Percent Effect = ? 126

Entry O=S(=O)(NCC1CCN(c2cnccn2)CC1)c1cccs1 : reported Percent Effect = ? 45.5

Entry Cc1noc(C)c1CN1C[C@@H]2OCCN(Cc3cnn(C)c3)[C@@H]2C1 : reported Percent Effect = ? -27.8

Entry Cc1cnn(CC2CN(Cc3nnc(C(C)C)o3)CCO2)c1 (centres undefined) : reported Percent Effect = ? -12.6

Entry c1cnc(N2CCO[C@H]3CN(CC4CCOC4)C[C@H]32)cn1 (some centres undefined) : reported Percent Effect = ? -2.77

Entry Fc1cccc(CN2C[C@@H]3CN(c4ncccn4)C[C@@H]3C2)c1 : reported Percent Effect = ? -4.52

Entry c1coc(CN2C[C@@H]3OCCN(CCN4CCCC4)[C@@H]3C2)c1 : reported Percent Effect = ? -17.4

Entry Cc1cc(C(=O)N2CC[C@H]3[C@H](C[C@@H](CN4CCCC4)N3C)C2)c(C)o1 : reported Percent Effect = ? -16.7

Entry O=C([C@H]1CC[C@@H]2[C@@H](CCN2C2CCOCC2)O1)N1CCOCC1 : reported Percent Effect = ? 5.19

Entry CCc1noc(CN(CCC2CCCCC2)CC(N)=O)n1 : reported Percent Effect = ? 6.76

Entry Cn1nccc1CCC(=O)N1CCOC(c2cnccn2)C1 (centres undefined) : reported Percent Effect = ? 4.28

Entry COc1ccc(NC(C)C(=O)N2CCCC2)cn1 (centres undefined) : reported Percent Effect = ? 67.9

Entry CN(Cc1ccco1)C[C@H]1OC[C@@H]2CCN(Cc3cccs3)C[C@@H]21 : reported Percent Effect = ? -7.96

Entry Cc1cc(-c2cnn(CCNC(=O)c3snnc3C)c2C2CC2)on1 : reported Percent Effect = ? 90.2

Entry Cc1ccc(S(=O)(=O)N2CC[C@H]3CO[C@H](CN(C)C)[C@H]3C2)cc1 : reported Percent Effect = ? -8.17

Entry Cc1ccc(CN2C[C@@H]3[C@@H](C(=O)NCC(C)C)CCS(=O)(=O)[C@@H]3C2)cc1 : reported Percent Effect = ? -36.5

Entry Cc1ccc(N2CC[C@H]3OCC[C@@]3(C(=O)NCC3CC3)C2)nn1 : reported Percent Effect = ? -16.8

Entry Cc1nnc(N2C[C@H](OCCCn3cccn3)[C@H]3OCCC[C@H]32)s1 : reported Percent Effect = ? -20.4

Entry Cc1nc(CNC(=O)N2CCN(c3ccc(Cl)cn3)CC2)sc1C : reported Percent Effect = ? 50.8

Entry Cc1noc([C@]23COC[C@H]2CN(S(=O)(=O)N(C)C)C3)n1 : reported Percent Effect = ? -30.1

Entry O=C(NCCCO)c1cc(-c2cc[nH]n2)n2ccccc12 : reported Percent Effect = ? 48.6

Entry Cc1cc(-c2cnn(CCNC(=O)c3cnn(C)c3)c2C2CC2)on1 : reported Percent Effect = ? -12.5

Entry O=C1[C@@H]2CCN(CC3CC3)C[C@@H]2OCCN1c1ccsc1 : reported Percent Effect = ? 2.34

Entry COC(=O)c1sc2cccc(F)c2c1CNC(=O)C1CCOC1 (centres undefined) : reported Percent Effect = ? 68.2

Entry O=C1NC(c2ccccc2)=N[C@@]12CC[C@@H]1CN(Cc3nccs3)C[C@@H]12 : reported Percent Effect = ? 23.9

Entry O=C(O)c1cn(-c2ccccn2)c(=O)c2ccccc12 : reported Percent Effect = ? 57

Entry CCOCC(=O)N1C[C@@H]2CC[C@H](C1)N(Cc1ccccn1)C2=O : reported Percent Effect = ? -4.9

Entry O=C(CC1CC1)NC[C@]12COC[C@H]1CN(c1ncc(F)cn1)C2 : reported Percent Effect = ? 8.61

Entry CN1CCS(=O)(=O)[C@@H]2CCN(C(=O)CC(C)(C)C)CC[C@@H]21 : reported Percent Effect = ? -26

Entry COc1ccc(NC(C)C(=O)N2CCN(c3ncccn3)CC2)cn1 (centres undefined) : reported Percent Effect = ? 4.94

Entry Cc1nc(COC[C@@H]2CC[C@H]3[C@H](CCN3c3ncccn3)O2)cs1 : reported Percent Effect = ? -28.4

Entry Cc1ccc(C)c(OC2CCN(C(=O)CNc3ccccc3Cl)CC2)c1 : reported Percent Effect = ? 73.1

Entry CCc1ccc(CN2C[C@H](OC)[C@H]3COC[C@H]32)o1 : reported Percent Effect = ? -5.96

Entry Cc1nc(CNC(=O)N2CCN(c3ccc(Cl)cn3)CC2)no1 : reported Percent Effect = ? 7.54

Entry Cc1ccoc1C(=O)N1CC[C@@H]2CN(C3CCOCC3)CCO[C@@H]2C1 : reported Percent Effect = ? -13.2

Entry O=C(N[C@H]1CN(Cc2cccs2)[C@@H]2CCCO[C@H]12)c1cccnc1 : reported Percent Effect = ? -28.5

Entry COc1ccc(NC(C)C(=O)N2CCN(c3ccccc3)CC2)cn1 (centres undefined) : reported Percent Effect = ? 31.4

Entry Cc1noc(C)c1CN1C(=O)[C@H]2CC[C@@H]1CN(Cc1cccnc1N)C2 : reported Percent Effect = ? -20

Entry CCc1ccc(S(=O)(=O)NCC2CCN(c3cnccn3)CC2)s1 : reported Percent Effect = ? 56.2

Entry Cc1ccc(N2CC[C@H]3C[C@H](C(=O)NCc4ccco4)O[C@@H]3C2)cc1 : reported Percent Effect = ? -20.4

Entry COCCN1C[C@H]2[C@@H](C1)N(C(=O)CCc1ccccc1)CC[C@H]2OC : reported Percent Effect = ? -5.76

Entry Nc1nccnc1CC1CCCN(Cc2c[nH]c3ccccc23)C1 (centres undefined) : reported Percent Effect = ? 15.3

Entry COc1ccccc1CN1CCCC(Cc2nccnc2N)C1 (centres undefined) : reported Percent Effect = ? -2.41
